All values here come from ChEMBL document CHEMBL2321762.

MEASUREMENT_TARGET: Sodium- and chloride-dependent glycine transporter 1 (Homo sapiens, UniProt P48067)
Sequence (P48067 whole entry): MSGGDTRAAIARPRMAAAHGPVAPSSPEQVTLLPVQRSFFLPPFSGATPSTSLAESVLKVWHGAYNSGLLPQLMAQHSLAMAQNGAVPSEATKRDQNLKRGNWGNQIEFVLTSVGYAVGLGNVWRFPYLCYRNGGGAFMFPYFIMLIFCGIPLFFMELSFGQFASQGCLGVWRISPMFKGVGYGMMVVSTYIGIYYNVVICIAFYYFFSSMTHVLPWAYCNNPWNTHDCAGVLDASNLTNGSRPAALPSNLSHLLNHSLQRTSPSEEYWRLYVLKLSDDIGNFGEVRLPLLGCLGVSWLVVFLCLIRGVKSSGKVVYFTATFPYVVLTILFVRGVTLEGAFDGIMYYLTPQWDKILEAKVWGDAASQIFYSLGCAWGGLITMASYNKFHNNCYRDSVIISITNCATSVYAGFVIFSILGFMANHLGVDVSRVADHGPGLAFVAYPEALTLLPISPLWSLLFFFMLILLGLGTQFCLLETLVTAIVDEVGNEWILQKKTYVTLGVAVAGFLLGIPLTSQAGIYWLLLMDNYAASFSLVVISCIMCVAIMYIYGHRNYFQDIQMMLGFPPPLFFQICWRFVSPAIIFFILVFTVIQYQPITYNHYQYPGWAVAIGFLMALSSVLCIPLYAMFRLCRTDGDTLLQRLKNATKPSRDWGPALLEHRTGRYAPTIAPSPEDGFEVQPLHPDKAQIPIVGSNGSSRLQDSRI
ASSAY: Inhibition of GlyT1a in human JAR cells assessed as inhibition of [3H]glycine uptake by scintillation proximity assay
PROPERTY: IC50 (nM)
Answers are plain numbers, in nM.

// solved cases for IC50 follow
Qu. Which measured IC50 value corresponds to CCCS(=O)(=O)N1CCN(C2(CNC(=O)c3ccc(Cl)cc3Cl)CCCCC2)CC1 ?
Ans. 22.7

Qu. CCCS(=O)(=O)N1CCN(C2(CNC(=O)c3c(Cl)cccc3Cl)CCCCC2)CC1 , same question.
Ans. 12.8

Qu. What do we get for CCCS(=O)(=O)N1CCN(C2(CNC(=O)c3c(OC)cc(C(F)(F)F)cc3C(F)(F)F)CCCCC2)CC1 ?
Ans. 4.4

Qu. What do we get for CCCS(=O)(=O)N1CCN(C2(CNC(=O)c3cccc(C(F)(F)F)c3Cl)CCCCC2)CC1 ?
Ans. 77.9

I have 5 compounds here; please give me IC50 for each one.
1. CCCS(=O)(=O)N1CCN(C2(CNC(=O)c3c(OC)cc(F)cc3SC)CCCCC2)CC1
2. CCCS(=O)(=O)N1CCN(C2(CNC(=O)c3c(N)cccc3Cl)CCCCC2)CC1
3. CCCS(=O)(=O)N1CCN(C2(CNC(=O)c3ccc(Cl)cc3Cl)CCOCC2)CC1
4. CCCS(=O)(=O)N1CCN(C2(CNC(=O)c3ccc(Cl)cc3)CCCCC2)CC1
5. CCCS(=O)(=O)N1CCN(C2(CNC(=O)c3c(N)cccc3Cl)CCCCCC2)CC1

Ans.
1: 6.1; 2: 15.1; 3: 500; 4: 175; 5: 6.3

###

MEASUREMENT_TARGET: Sodium- and chloride-dependent glycine transporter 1 (Homo sapiens)
ASSAY: Inhibition of GlyT1a in human JAR cells assessed as inhibition of [3H]glycine uptake by scintillation proximity assay
Please respond with reported pIC50 for every item in the list.
Answers are plain numbers, as −log10 of the molar value.

Record pIC50 for all entries; do not skip any.
1. CCCS(=O)(=O)N1CCN(C2(CNC(=O)c3ccc(OC)cc3F)CCCCC2)CC1
2. CCCS(=O)(=O)N1CCN(C2(CNC(=O)c3c(F)cccc3F)C[C@H]3C[C@H]3C2)CC1 (mixture of isomers)
3. CCCS(=O)(=O)N1CCN(C2(CNC(=O)c3cccc(C(F)(F)F)c3)CCCCC2)CC1

Ans.
[7.77, 6.21, 6.28]

###

ASSAY: Metabolic stability in human liver microsomes assessed as compound remaining at 10 uM after 60 mins
Type: ADME, Microsome
ASSAY_CONDITIONS: read-out: Stability
PROPERTY: remaining at 1 h, 10 µM (%)
Answers are plain numbers, in %.

Each compound below has a recorded value; state its remaining at 1 h, 10 µM.
1. CCCS(=O)(=O)N1CCN(C2(CNC(=O)c3ccccc3OC(F)(F)F)CCCCC2)CC1
2. CCCS(=O)(=O)N1CCN(C2(CNC(=O)c3c(N)cccc3Cl)CCN(C)CC2)CC1
3. CCCS(=O)(=O)N1CCN(C2(CNC(=O)c3ccc(F)cc3C)CCCCC2)CC1

Ans.
2
40
2

###

ASSAY: Terminal half life in rat at 2 mg/kg, iv and 10 mg/kg, po
Format: ADME, organism-based
ASSAY_CONDITIONS: in vivo, read-out: beta t1/2 (converted)
PROPERTY: half-life (h)
One number for each entry, in h.

Qu. Quick one: half-life for CCCS(=O)(=O)N1CCN(C2(CNC(=O)c3c(F)cccc3F)CCC(F)(F)CC2)CC1 ?
Ans. 2.9
